Test system: COV318
protocol: drug sensitivity score (DSS) from 5-point dose-response viability curve (DSS (area-under-curve based score)); higher = more sensitive (stronger growth inhibition or killing); extreme values may be limits of the assay
study_conditions: exposure time: 72 h; concentration range: 5 concentrations over 10,000-fold range

>  <molecule>
Cc1c(N)nc([C@H](CC(N)=O)NC[C@H](N)C(N)=O)nc1C(=O)N[C@H](C(=O)N[C@H](C)[C@@H](O)[C@H](C)C(=O)N[C@H](C(=O)NCCc1nc(-c2nc(C(=O)NCCC[S+](C)C)cs2)cs1)[C@@H](C)O)[C@@H](OC1OC(CO)C(O)C(O)C1OC1OC(CO)C(O)C(OC(N)=O)C1O)c1cnc[nH]1 (some centres not stated)

>  <assayed_system>
COV318

>  <drug sensitivity score>
0

$$$$
>  <molecule>
COc1ccc(-c2nc(N3CCOCC3)c3sc(CN(C)c4ncc(C(=O)NO)cn4)cc3n2)cn1

>  <assayed_system>
COV318

>  <drug sensitivity score>
21.3

$$$$
>  <molecule>
C=C1C[C@@H]2CC[C@@]34C[C@H]5O[C@H]6[C@@H](O3)[C@H]3O[C@H](CC[C@@H]3O[C@H]6[C@H]5O4)CC(=O)C[C@@H]3[C@@H](OC)[C@@H](C[C@H](O)CN)O[C@H]3C[C@H]3O[C@@H](CC[C@@H]1O2)C[C@@H](C)C3=C

>  <assayed_system>
COV318

>  <drug sensitivity score>
4.2

$$$$
>  <molecule>
Clc1ccc(Nc2nnc(Cc3ccncc3)c3ccccc23)cc1

>  <assayed_system>
COV318

>  <drug sensitivity score>
0

$$$$
>  <molecule>
NC(=O)/C(=C/n1cnc(-c2cc(C(F)(F)F)cc(C(F)(F)F)c2)n1)c1cncnc1 [Eltanexor]

>  <assayed_system>
COV318

>  <drug sensitivity score>
7.5

$$$$
>  <molecule>
COc1cc2c(N3CCN(C(=O)Nc4ccc(OC(C)C)cc4)CC3)ncnc2cc1OCCCN1CCCCC1

>  <assayed_system>
COV318

>  <drug sensitivity score>
0

$$$$
>  <molecule>
Cc1nc(Nc2ncc(C(=O)Nc3c(C)cccc3Cl)s2)cc(N2CCN(CCO)CC2)n1

>  <assayed_system>
COV318

>  <drug sensitivity score>
0.2

$$$$
